Source of measurements: the supplement of paper PMC9170038

System: MS2 coat protein
Assay: apparent KD of MS2 coat protein; higher = weaker reporter binding
Details: Eterna round: R107; input ligand: tryptophan 2.4 mM
endpoint-label: apparent KD of MS2 coat protein (nM)
Please state the figure in nM; there is no need to write the unit.

Please review the entries below; each comes with its answer.
residues: GAUAUGUAUCGAAGGAGCGGCCCUUGAUCCUCAUGAGACAUGAGGAUCACCCAUGUCUCGGGCCAGGUAGGUCGCGAUAUAUAUC [Astros-omei-mod3]
endpoint-label: apparent KD of MS2 coat protein
unit-tag: nM
experimental-result: 21.8
--
residues: GUAUAGUCUCGAAGGAGCGUCACAUGAGGAUCACCCAUGUACAUGAGGAUCACCCAUGUGUGGCAGGUAGGUCGCGAGCUAUACC [Exclusion Arginine B GF8]
endpoint-label: apparent KD of MS2 coat protein
unit-tag: nM
experimental-result: 312
--
residues: UCACAUGAGGAUCACCCAUGUGUCAGAGAAGGAGCGGCCGCAAGGCCAGGUAGGUCGCUCGGGUAUGGUGAGGUUCACCCGUGUG [#1 Exclusion - Arginine A Attempt #13 (Inspired by cyborg)]
endpoint-label: apparent KD of MS2 coat protein
unit-tag: nM
experimental-result: 56.7

[ask] Please report the measured apparent KD of MS2 coat protein for ACGAACGCACCUGAGGAUCACCCAGGUGAUACCAGCCUGGAAACAGGCCCUUGGCAGCACCUAAAAUAAAGGUAACGUUCGAAUA [TheoAX7 #MicroSwitchBubble #AlternativeMS2]
[reply] 61.9

[ask] Please report apparent KD of MS2 coat protein for the following sequence: AGUACACGAACUGAUACCAGCCGGACAUGAGGAUCACCCAUGUCCUACCUCUGUUCGGUUGGCCCUUGGCAGCAGUUCGUGUACA [Omei Theo B SS A v9]
[reply] 76.2

[ask] Please indicate apparent KD of MS2 coat protein recorded for ACCUACACGGAGACGUGUAGGAGUAAUGAUACCAGCAUGGAGACAUGCCCUUGGCAGCGUUACAUGAGGAUCACCCAUGUGGUGC [ETHA #6]
[reply] 21.6

[ask] Let me know recorded apparent KD of MS2 coat protein for CCGUAGCUAGGAAGGAGCGCAUACUUCACAUGAGGAUCACCCAUGUCGAGACGUGAGUCAGUGCAGGUAGGUCGCCUAGCUAUGG [Same State - Arginine B (Freestyle 28)] , thanks.
[reply] 15.7

[ask] Note apparent KD of MS2 coat protein for the sequence shown: GUCUGUGACUGAAGGAGCGACAUGAGGAUCACCCAUGUCUCCCGUUAUGGGAGUUCCUUAGGUCAGGUAGGUCGCAGUCACAGAC [#1 Exclusion - Arginine B Attempt #28 (Inspired by Omei)]
[reply] 103

[ask] Provide measured apparent KD of MS2 coat protein value, entry: UCUUACUUGGUAGAUACCAGCGUGUUAUCUUUCUUUUGACAUGAGGAUCACCCAUGUAUAUGCCCUUGGCAGCUGCGUAGUGUGU [#03 Same State - Theophylline B]
[reply] 27.4

[ask] Give the reported value of apparent KD of MS2 coat protein for this record: CGUCGAGACUGAAGGAGCGAGAUAACAACAUUGGGUCUCAACACAUGAGGAUCACCCAUGUCUCAGGUAGGUCGCGGUGUCACCG [Exclusion Arginine B GF21]
[reply] 132

[ask] Identify measured apparent KD of MS2 coat protein corresponding to UGCCCUGCGAGCGCUCGCAGGGCAGCGGAUACCAGCGAGGUCCAUCGCCCUUGGCAGCCGAACAUGAGGAUCACCCAUGUCGGUG [Same State - Theophylline A Attempt #9 (HarryS)]
[reply] 13.2
